Taken from patent US20230086703A1.

Listing of recorded pIC50 by entry.
- subject of test: human CTPS1 (Homo sapiens)
- Construct: FLAG (with GG linker); His8 (with GG linker); purchased Proteros biostructures GmbH
- Sequence (P17812 whole entry): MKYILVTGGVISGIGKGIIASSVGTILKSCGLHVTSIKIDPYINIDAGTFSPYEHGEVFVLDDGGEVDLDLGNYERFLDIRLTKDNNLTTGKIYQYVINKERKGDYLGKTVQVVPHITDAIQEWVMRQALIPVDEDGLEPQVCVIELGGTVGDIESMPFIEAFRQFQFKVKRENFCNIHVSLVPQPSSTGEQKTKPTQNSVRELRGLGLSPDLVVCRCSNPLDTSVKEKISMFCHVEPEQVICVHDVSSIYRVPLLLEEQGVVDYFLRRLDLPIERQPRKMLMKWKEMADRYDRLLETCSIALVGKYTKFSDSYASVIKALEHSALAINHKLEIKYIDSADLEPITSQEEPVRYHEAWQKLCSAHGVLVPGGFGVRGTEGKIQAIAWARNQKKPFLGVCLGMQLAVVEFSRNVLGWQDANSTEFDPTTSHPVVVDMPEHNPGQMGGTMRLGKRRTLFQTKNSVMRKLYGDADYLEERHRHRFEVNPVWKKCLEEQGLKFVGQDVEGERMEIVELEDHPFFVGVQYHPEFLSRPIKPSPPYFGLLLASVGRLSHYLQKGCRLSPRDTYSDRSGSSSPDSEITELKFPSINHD
- procedure details: Human CTPS1 enzyme inhibition, ADP-Glo Max assay
- Format: biochemical
- applied conditions: ADP-Glo Max assay; Table 10; read-out: Human CTPS1 Enzyme Inhibition, IC50 grouped by potency range (CTPS1)
pIC50: −log10 of the molar value.

>  <smiles record>
O=C(Cc1csc(NS(=O)(=O)C2CC2)n1)Nc1ccc(-c2cnccn2)cc1

>  <pIC50>
> 7.00

$$$$
>  <smiles record>
CC(C)(C(=O)Nc1ccc(-c2cncc(OC3CCC3)n2)cn1)c1csc(NS(=O)(=O)C2CC2)n1

>  <pIC50>
6.00 to 7.00

$$$$
>  <smiles record>
Cc1ncc(-c2ccc(NC(=O)C(C)(C)c3csc(NS(=O)(=O)C4CC4)n3)cc2)nc1C

>  <pIC50>
6.00 to 7.00

$$$$
>  <smiles record>
CN(C(=O)C(C)(C)c1csc(NS(=O)(=O)C2CC2)n1)c1ccc(-c2cccnc2)cc1

>  <pIC50>
5.00 to 6.00

$$$$
>  <smiles record>
Cc1cncc(-c2ccc(NC(=O)Cc3csc(NS(=O)(=O)C4CC4)n3)cc2)c1

>  <pIC50>
> 7.00

$$$$
>  <smiles record>
CN(C(=O)Cc1csc(NS(=O)(=O)C2CC2)n1)c1ccc(-c2cccnc2)cc1

>  <pIC50>
6.00 to 7.00

$$$$
>  <smiles record>
CC(C)(C(=O)Nc1ccc(-c2cncc(Cl)c2)c(C(F)(F)F)c1)c1csc(NS(=O)(=O)C2CC2)n1

>  <pIC50>
5.00 to 6.00

$$$$
>  <smiles record>
O=C(Nc1ccc(-c2cccnc2)cc1)C(=O)c1csc(NS(=O)(=O)C2CC2)n1

>  <pIC50>
6.00 to 7.00

$$$$
